- measured_on: 5-hydroxytryptamine receptor 1A (Homo sapiens)
- Sequence (whole entry): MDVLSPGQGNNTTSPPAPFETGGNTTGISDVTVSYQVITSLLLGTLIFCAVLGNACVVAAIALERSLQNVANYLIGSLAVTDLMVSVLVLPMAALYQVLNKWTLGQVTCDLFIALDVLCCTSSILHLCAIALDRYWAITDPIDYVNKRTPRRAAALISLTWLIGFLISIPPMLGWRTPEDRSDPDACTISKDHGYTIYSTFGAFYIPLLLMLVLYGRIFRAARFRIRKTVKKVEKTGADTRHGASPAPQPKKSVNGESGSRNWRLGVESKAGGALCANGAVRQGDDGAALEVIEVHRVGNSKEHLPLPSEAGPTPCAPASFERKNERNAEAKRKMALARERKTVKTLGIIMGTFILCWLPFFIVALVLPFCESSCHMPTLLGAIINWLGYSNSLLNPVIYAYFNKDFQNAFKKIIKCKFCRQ
- experiment_summary: Antagonist activity at human 5HT1A expressed in mouse LM(tK-) cells assessed as maximal inhibition of 5-HT-stimulated [35S]GTPgammaS binding
- Format: functional, cell-based
- Parameters: scale not given: the % may be the effect or the level left
measured_property: Activity

Answered cases to consult:
- compound: "OC(CNC12CC3CC(CC(C3)C1)C2)COc1cccc2[nH]ccc12 (configuration not stated)"
  measured_property: "Activity"
  result: "6.56%"
- compound: "CC(C)NCC(O)COc1cccc2[nH]ccc12 (configuration not stated)"
  measured_property: "Activity"
  result: "9.76%"
- compound: "CCC(CC)NCC(O)COc1cccc2[nH]ccc12 (configuration not stated)"
  measured_property: "Activity"
  result: "4.74%"
- compound: "O[C@@H](CNC1CCCCC1)COc1cccc2[nH]ccc12"
  measured_property: "Activity"
  result: "7.52%"
- compound: "O[C@@H](CNC12CC3CC(CC(C3)C1)C2)COc1cccc2[nH]ccc12"
  measured_property: "Activity"
  result: "6.38%"

Inquiry: Query (compound): OC(CNC1CCCCC1)COc1cccc2[nH]ccc12 (configuration not stated) ; field requested: Activity
Reply text: 9.88%

Inquiry: Query (compound): O[C@H](CNC1CCCCC1)COc1cccc2[nH]ccc12 ; field requested: Activity
Reply text: 8.87%

###

- measured_on: 5-hydroxytryptamine receptor 1A (Homo sapiens)
- Sequence (P08908 whole entry): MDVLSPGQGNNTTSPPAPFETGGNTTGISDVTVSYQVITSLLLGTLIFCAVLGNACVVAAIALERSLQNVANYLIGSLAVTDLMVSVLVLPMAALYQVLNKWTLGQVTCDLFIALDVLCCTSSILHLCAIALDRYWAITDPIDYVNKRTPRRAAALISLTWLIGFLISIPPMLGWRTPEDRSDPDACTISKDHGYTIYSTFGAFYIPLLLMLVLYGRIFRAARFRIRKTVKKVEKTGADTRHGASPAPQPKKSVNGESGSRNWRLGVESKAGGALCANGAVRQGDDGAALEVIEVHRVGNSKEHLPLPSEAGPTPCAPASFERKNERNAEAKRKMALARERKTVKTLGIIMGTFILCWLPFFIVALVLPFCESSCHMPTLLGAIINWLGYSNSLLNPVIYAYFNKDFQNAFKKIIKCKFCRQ
- experiment_summary: Displacement of [3H]DPAT from human 5HT1A receptor
measured_property: Ki (nM)
Dear colleague, please return just the value in nM, with no unit written.

Answered cases to consult:
- compound: "COC(CNC1CCCCC1)COc1cccc2[nH]ccc12 (stereo not drawn)"
  measured_property: "Ki"
  quantitative_readout: 40.6
- compound: "O[C@@H](CNC1C2CC3CC(C2)CC1C3)COc1cccc2[nH]ccc12 (stereo partly drawn)"
  measured_property: "Ki"
  quantitative_readout: 11.2
- compound: "COC(CNC12CC3CC(CC(C3)C1)C2)COc1cccc2[nH]ccc12 (stereo not drawn)"
  measured_property: "Ki"
  quantitative_readout: 32
- compound: "C[C@](O)(CNC12CC3CC(CC(C3)C1)C2)COc1cccc2[nH]ccc12"
  measured_property: "Ki"
  quantitative_readout: 868

Inquiry: Field: Ki (5-hydroxytryptamine receptor 1A (Homo sapiens)). Entry: O[C@H](CNC12CC3CC(CC(C3)C1)C2)COc1cccc2[nH]ccc12
Reply text: 18.3

Inquiry: Field: Ki (5-hydroxytryptamine receptor 1A (Homo sapiens)). Entry: OC(CCNC12CC3CC(CC(C3)C1)C2)COc1cccc2[nH]ccc12 (stereo not drawn)
Reply text: 76.1

Inquiry: Field: Ki (5-hydroxytryptamine receptor 1A (Homo sapiens)). Entry: CC(C)NCC(O)CCOc1cccc2[nH]ccc12 (stereo not drawn)
Reply text: 1770

Inquiry: Field: Ki (5-hydroxytryptamine receptor 1A (Homo sapiens)). Entry: c1cc(OCCCNC2CCCCC2)c2cc[nH]c2c1
Reply text: 78.4

Inquiry: Field: Ki (5-hydroxytryptamine receptor 1A (Homo sapiens)). Entry: O[C@@H](CNC12CC3CC(CC(C3)C1)C2)COc1cccc2[nH]ccc12
Reply text: 3.89

Inquiry: Field: Ki (5-hydroxytryptamine receptor 1A (Homo sapiens)). Entry: OC(CNC12CC3CC(CC(C3)C1)C2)COc1cccc2[nH]ccc12 (stereo not drawn)
Reply text: 9.29

Inquiry: Field: Ki (5-hydroxytryptamine receptor 1A (Homo sapiens)). Entry: OC(CNC1CCCCC1)COc1cccc2[nH]ccc12 (stereo not drawn)
Reply text: 3.58

Inquiry: Field: Ki (5-hydroxytryptamine receptor 1A (Homo sapiens)). Entry: CCC(CC)NCC(O)COc1cccc2[nH]ccc12 (stereo not drawn)
Reply text: 28.6

Inquiry: Field: Ki (5-hydroxytryptamine receptor 1A (Homo sapiens)). Entry: OC(CNC1CCCC1)COc1cccc2[nH]ccc12 (stereo not drawn)
Reply text: 10.6

Inquiry: Field: Ki (5-hydroxytryptamine receptor 1A (Homo sapiens)). Entry: C[C@](O)(CNC1CCCCC1)COc1cccc2[nH]ccc12
Reply text: 1450

Inquiry: Field: Ki (5-hydroxytryptamine receptor 1A (Homo sapiens)). Entry: OC(CNC1CCCCCC1)COc1cccc2[nH]ccc12 (stereo not drawn)
Reply text: 6.82

Inquiry: Field: Ki (5-hydroxytryptamine receptor 1A (Homo sapiens)). Entry: OC(CCOc1cccc2[nH]ccc12)CNC1CCCCC1 (stereo not drawn)
Reply text: 872

Inquiry: Field: Ki (5-hydroxytryptamine receptor 1A (Homo sapiens)). Entry: OC(CCOc1cccc2[nH]ccc12)CNC12CC3CC(CC(C3)C1)C2 (stereo not drawn)
Reply text: 551

Inquiry: Field: Ki (5-hydroxytryptamine receptor 1A (Homo sapiens)). Entry: OC(CNC12CC3CC(CC(C3)C1)C2)COc1ccc2[nH]ccc2c1 (stereo not drawn)
Reply text: 833

Inquiry: Field: Ki (5-hydroxytryptamine receptor 1A (Homo sapiens)). Entry: OC(CCNC1CCCCC1)COc1cccc2[nH]ccc12 (stereo not drawn)
Reply text: 125

Inquiry: Field: Ki (5-hydroxytryptamine receptor 1A (Homo sapiens)). Entry: O[C@H](CNC1CCCCC1)COc1cccc2[nH]ccc12
Reply text: 26.1

Inquiry: Field: Ki (5-hydroxytryptamine receptor 1A (Homo sapiens)). Entry: c1cc(OCCCNC2CCCC2)c2cc[nH]c2c1
Reply text: 94.3

Inquiry: Field: Ki (5-hydroxytryptamine receptor 1A (Homo sapiens)). Entry: O[C@@H](CNC1CCCCC1)COc1cccc2[nH]ccc12
Reply text: 1.33

###

- measured_on: Beta-1 adrenergic receptor (Homo sapiens)
- Sequence (P08588 whole entry): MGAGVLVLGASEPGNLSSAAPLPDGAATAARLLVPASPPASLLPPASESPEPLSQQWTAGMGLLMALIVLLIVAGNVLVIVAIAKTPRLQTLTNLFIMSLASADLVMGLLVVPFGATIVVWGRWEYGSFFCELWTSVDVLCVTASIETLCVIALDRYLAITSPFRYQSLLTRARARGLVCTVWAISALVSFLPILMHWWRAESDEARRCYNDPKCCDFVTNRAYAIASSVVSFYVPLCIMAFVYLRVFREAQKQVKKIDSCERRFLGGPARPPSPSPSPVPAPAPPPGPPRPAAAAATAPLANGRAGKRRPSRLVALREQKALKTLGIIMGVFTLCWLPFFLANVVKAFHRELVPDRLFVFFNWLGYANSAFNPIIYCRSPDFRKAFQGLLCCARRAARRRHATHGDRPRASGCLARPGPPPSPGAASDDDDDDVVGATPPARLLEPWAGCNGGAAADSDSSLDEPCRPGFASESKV
measured_property: Ki (nM)
Dear colleague, please return just the value in nM, with no unit written.

Inquiry: Query (molecule): O[C@@H](CNC1CCCCC1)COc1cccc2[nH]ccc12 ; field requested: Ki
Reply text: 2.37

###

- measured_on: 5-hydroxytryptamine receptor 1A (Homo sapiens, UniProt P08908)
- experiment_summary: Antagonist activity at human 5HT1A expressed in mouse LM(tK-) cells assessed as inhibition of 5-HT-stimulated [35S]GTP-gamma-S binding
- Assay type: functional, cell-based
measured_property: log10 Ki (log10 of the value in nM)
Remember, log10 of Ki, in nM.

Answered cases to consult:
- molecule: "O[C@H](CNC1CCCCC1)COc1cccc2[nH]ccc12"
  quantitative_readout: 1.71
- molecule: "OC(CNC12CC3CC(CC(C3)C1)C2)COc1cccc2[nH]ccc12 (stereo unspecified)"
  quantitative_readout: 0.89
- molecule: "O[C@H](CNC12CC3CC(CC(C3)C1)C2)COc1cccc2[nH]ccc12"
  quantitative_readout: 1.48

Inquiry: Query (molecule): c1cc(OCCCNC2CCCC2)c2cc[nH]c2c1 ; field requested: log10 Ki
Reply text: 2.37

Inquiry: Query (molecule): OC(CNC1CCCCCC1)COc1cccc2[nH]ccc12 (stereo unspecified) ; field requested: log10 Ki
Reply text: 1.05

Inquiry: Query (molecule): CCC(CC)NCC(O)COc1cccc2[nH]ccc12 (stereo unspecified) ; field requested: log10 Ki
Reply text: 1.70

Inquiry: Query (molecule): OC(CNC1CCCC1)COc1cccc2[nH]ccc12 (stereo unspecified) ; field requested: log10 Ki
Reply text: 1.55

Inquiry: Query (molecule): O[C@@H](CNC1CCCCC1)COc1cccc2[nH]ccc12 ; field requested: log10 Ki
Reply text: 0.82

Inquiry: Query (molecule): O[C@@H](CNC12CC3CC(CC(C3)C1)C2)COc1cccc2[nH]ccc12 ; field requested: log10 Ki
Reply text: 0.67

Inquiry: Query (molecule): O[C@@H](CNC1C2CC3CC(C2)CC1C3)COc1cccc2[nH]ccc12 (stereo partly specified) ; field requested: log10 Ki
Reply text: 1.38

Inquiry: Query (molecule): OC(CNC1CCCCC1)COc1cccc2[nH]ccc12 (stereo unspecified) ; field requested: log10 Ki
Reply text: 0.99
